- System: Toledo
- method: Cell viability assay, Toledo
- Format: cell-based
- experimental_setup: GC-DLBCL, EZH2 Wildtype, 144 hours, read-out: IC50 GSK126
pIC50: −log10 of the molar value.
measure_name: pIC50

CC[C@H](C)n1cc(C)c2c(C(=O)NCc3c(C)cc(C)[nH]c3=O)cc(-c3ccc(N4CCNCC4)nc3)cc21 [GSK126]
5.22

###

- Test system: OCI-LY7
- method: Cell viability assay, OCI-LY7
- Format: cell-based
- experimental_setup: OCI-LY7, GC-DLBCL, EZH2 Wildtype, 144 hours; read-out: IC50 GSK126
measure_name: IC50 (µM)

CC[C@H](C)n1cc(C)c2c(C(=O)NCc3c(C)cc(C)[nH]c3=O)cc(-c3ccc(N4CCNCC4)nc3)cc21
4.3

###

- System: OCI-LY1
- method: Cell viability assay, OCI-LY1
- Format: cell-based
- experimental_setup: Homo sapiens, OCI-Ly1, 72 h, read-out: IC50 Romidespin
pIC50: −log10 of the molar value.
measure_name: pIC50

C/C=C1\NC(=O)[C@H]2CSSCC/C=C/[C@H](CC(=O)N[C@H](C(C)C)C(=O)N2)OC(=O)[C@H](C(C)C)NC1=O
8.60

###

- System: H9
- method: Cell viability assay, H9
- Format: cell-based
- experimental_setup: H9, CTCL, EZH2 Wildtype, 144 hours; read-out: IC50 GSK126
measure_name: IC50 (µM)

CC[C@H](C)n1cc(C)c2c(C(=O)NCc3c(C)cc(C)[nH]c3=O)cc(-c3ccc(N4CCNCC4)nc3)cc21
6.1

###

- System: TLOM-1
- method: Cell viability assay, TLOM-1
- Format: cell-based
- experimental_setup: TLOM-1, ATLL, EZH2 Overexpression, 144 hours; read-out: IC50 GSK126
measure_name: IC50 (nM)

CC[C@H](C)n1cc(C)c2c(C(=O)NCc3c(C)cc(C)[nH]c3=O)cc(-c3ccc(N4CCNCC4)nc3)cc21
1500

###

- Test system: PF-382
- method: Cell viability assay, PF-382
- Assay type: cell-based
- experimental_setup: Homo sapiens, PF-382, 72 h, read-out: IC50 Romidespin
measure_name: IC50 (nM)

C/C=C1\NC(=O)[C@H]2CSSCC/C=C/[C@H](CC(=O)N[C@H](C(C)C)C(=O)N2)OC(=O)[C@H](C(C)C)NC1=O
3.5

###

- experimental_setup: mouse, in vivo
measure_name: Cmax (µM)

CC[C@H](C)n1cc(C)c2c(C(=O)NCc3c(C)cc(C)[nH]c3=O)cc(-c3ccc(N4CCNCC4)nc3)cc21 [GSK126]
3.15

###

- Tested on: Farage
- method: Cell viability assay, Farage
- Type: cell-based
- experimental_setup: GC-DLBCL, EZH2 Wildtype, 144 hours, read-out: IC50 GSK126
measure_name: IC50 (µM)

CC[C@H](C)n1cc(C)c2c(C(=O)NCc3c(C)cc(C)[nH]c3=O)cc(-c3ccc(N4CCNCC4)nc3)cc21
10

###

- method: in vivo
- experimental_setup: mouse, serum, ip
measure_name: Cmax (ng/mL)

C/C=C1\NC(=O)[C@H]2CSSCC/C=C/[C@H](CC(=O)N[C@H](C(C)C)C(=O)N2)OC(=O)[C@H](C(C)C)NC1=O [romidepsin]
25.1
